test system: RARg homodimer (NR concentration 270 nM); experiment: PBM binding z-score (relative to random genomic background probes); higher = stronger binding; sequences stand for … in GC…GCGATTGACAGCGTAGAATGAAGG
parameter: PBM binding z-score
Response field accepts a number only; no unit should be typed.

Recorded results for 5 sequences are shown here.
INSERT INTO results (sequence_record, parameter, test_result) VALUES
  ('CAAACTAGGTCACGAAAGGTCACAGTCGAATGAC', 'PBM binding z-score', 8.69),
  ('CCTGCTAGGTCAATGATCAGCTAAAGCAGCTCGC', 'PBM binding z-score', 4.16),
  ('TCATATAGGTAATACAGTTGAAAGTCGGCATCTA', 'PBM binding z-score', 0.493),
  ('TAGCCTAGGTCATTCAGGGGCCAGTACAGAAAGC', 'PBM binding z-score', 4.35),
  ('TAGCCTAGGTCATGGGCCAGGATACCACGCGAAC', 'PBM binding z-score', 4.49);

Kindly consider the entry below.
Identify the reported PBM binding z-score for the following entry. "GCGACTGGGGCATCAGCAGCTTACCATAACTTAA" -0.193
